targetOfAssay: Autotaxin (ATX) (Homo sapiens (Human), UniProt Q13822)
testProtocol: ATX bioactivity assay (Amplex Red / choline oxidase / HRP fluorescence, LPC 16:0 substrate)
Format: biochemical
conditionParameters: 30 min room temperature
The following compounds are shown together with reported IC50 values.
endpointLabel: IC50 (nM)

compound=CCN(c1nc(-c2ccc(F)c(F)c2)c(C#N)s1)c1c2cc(N3CCN(CC(=O)N4CC(O)C4)CC3)cc(F)c2nn1CC unitabbrev=nM testvalue=32
compound=CCN(c1nc(-c2ccc(F)cc2)c(C#N)s1)c1c2nc(N3CCN(CC(=O)N4CC(O)C4)CC3)cc(C)c2nn1CC unitabbrev=nM testvalue=24
compound="CCc1oc2ccc(N3CCN(CC(=O)N4CC(O)C4)CC3)nc2c1N(CC)c1nc(-c2ccc(F)cc2)c(C#N)s1 [Compound S-0105CP]" unitabbrev=nM testvalue=49
compound=CCc1nn2ccc(N3CCN(CC(=O)N4CC(O)C4)CC3)nc2c1N(CC)c1nc(-c2ccc(F)cc2)c(C#N)s1 unitabbrev=nM testvalue=20
compound=CCn1nc2c(F)cc(N3CCN(CC(=O)N4CC(O)C4)CC3)cc2c1N(C)c1nc(-c2ccc(F)cc2)c(C#N)s1 unitabbrev=nM testvalue=88

###

The following compounds are shown together with reported CYP3A4 TDI % @ 10 μM values.
targetOfAssay: CYP3A4 (Homo sapiens (Human), UniProt P08684)
Sequence (P08684 whole entry): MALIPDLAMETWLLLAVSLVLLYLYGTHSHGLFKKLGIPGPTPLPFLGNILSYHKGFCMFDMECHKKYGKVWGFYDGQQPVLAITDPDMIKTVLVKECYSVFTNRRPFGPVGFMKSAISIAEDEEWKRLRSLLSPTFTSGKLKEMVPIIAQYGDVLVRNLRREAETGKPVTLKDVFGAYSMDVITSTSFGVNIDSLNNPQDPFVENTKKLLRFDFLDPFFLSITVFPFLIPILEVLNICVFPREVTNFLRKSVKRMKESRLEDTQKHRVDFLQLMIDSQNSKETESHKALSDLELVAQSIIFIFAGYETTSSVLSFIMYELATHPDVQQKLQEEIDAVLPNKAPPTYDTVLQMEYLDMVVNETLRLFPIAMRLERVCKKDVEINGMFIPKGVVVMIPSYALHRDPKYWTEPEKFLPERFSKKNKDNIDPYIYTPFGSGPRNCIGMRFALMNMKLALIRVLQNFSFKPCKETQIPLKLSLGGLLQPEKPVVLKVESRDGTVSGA
testProtocol: Time-dependent inhibition of CYP3A4 (TDI assay, human liver microsomes)
Type: in vitro ADME
conditionParameters: 10 μM, human liver microsomes, Midazolam substrate, 30 min with NADPH vs 0 min
endpointLabel: CYP3A4 TDI % @ 10 μM

compound="CCn1nc2c(F)cc(N3CCN(CC(=O)N4CC(O)C4)CC3)cc2c1N(C)c1nc(-c2ccc(F)cc2)c(C#N)s1 [Compound S-0025]" endpointlabel="CYP3A4 TDI % @ 10 μM" testvalue=34.21%
compound="CCN(c1nc(-c2ccc(F)cc2)c(C#N)s1)c1c2cc(N3CCN(CC(=O)N4CC(O)C4)CC3)cc(F)c2nn1CC [Compound S-0122]" endpointlabel="CYP3A4 TDI % @ 10 μM" testvalue=38.25%
compound="CCc1oc2c(F)cc(N3CCN(CC(=O)N4CC(O)C4)CC3)cc2c1N(C)c1nc(-c2ccc(F)cc2)c(C#N)s1 [Compound S-0024]" endpointlabel="CYP3A4 TDI % @ 10 μM" testvalue=4.8%
compound="CCc1oc2ccc(N3CCN(CC(=O)N4CC(O)C4)CC3)nc2c1N(CC)c1nc(-c2ccc(F)cc2)c(C#N)s1 [Compound S-0105CP]" endpointlabel="CYP3A4 TDI % @ 10 μM" testvalue=0%
compound="CCn1nc2c(C)cc(N3CCN(CC(=O)N4CC(O)C4)CC3)nc2c1N(C)c1nc(-c2ccc(F)cc2)c(C#N)s1 [Compound S-0095]" endpointlabel="CYP3A4 TDI % @ 10 μM" testvalue=2.91%
compound="CCn1nc2cnc(N3CCN(CC(=O)N4CC(O)C4)CC3)cc2c1N(C)c1nc(-c2ccc(F)cc2)c(C#N)s1 [Compound S-0044]" endpointlabel="CYP3A4 TDI % @ 10 μM" testvalue=15.3%
compound="CCc1c(N(C)c2nc(-c3ccc(F)cc3)c(C#N)s2)c2nc(N3CCN(CC(=O)N4CC(O)C4)CC3)ccc2n1C [Compound S-0128]" endpointlabel="CYP3A4 TDI % @ 10 μM" testvalue=33.64%
compound="CCn1nc2c(F)cc(N3CCN(CC(=O)N4CC(O)C4)CC3)cc2c1N(C)c1nc(-c2ccc(F)c(F)c2)c(C#N)s1 [Compound S-0027]" endpointlabel="CYP3A4 TDI % @ 10 μM" testvalue=42.12%
compound="CCc1sc2ccc(N3CCN(CC(=O)N4CC(O)C4)CC3)nc2c1N(C)c1nc(-c2ccc(F)cc2)c(C#N)s1 [Compound S-0129]" endpointlabel="CYP3A4 TDI % @ 10 μM" testvalue=14.42%
compound="CCc1oc2ncc(N3CCN(CC(=O)N4CC(O)C4)CC3)cc2c1N(C)c1nc(-c2ccc(F)cc2)c(C#N)s1 [Compound S-0045]" endpointlabel="CYP3A4 TDI % @ 10 μM" testvalue=2.68%
compound="CCc1oc2cnc(N3CCN(CC(=O)N4CC(O)C4)CC3)cc2c1N(C)c1nc(-c2ccc(F)cc2)c(C#N)s1 [Compound S-0046]" endpointlabel="CYP3A4 TDI % @ 10 μM" testvalue=10.38%
compound="CCc1oc2ccc(N3CCN(CC(=O)N4CC(O)C4)CC3)nc2c1N(C)c1nc(-c2ccc(F)cc2)c(C#N)s1 [Compound S-0097]" endpointlabel="CYP3A4 TDI % @ 10 μM" testvalue=12.51%
compound="CCc1nn2ccc(N3CCN(CC(=O)N4CC(O)C4)CC3)nc2c1N(C)c1nc(-c2ccc(F)cc2)c(C#N)s1 [Compound S-0041]" endpointlabel="CYP3A4 TDI % @ 10 μM" testvalue=−4.00%
compound="CCN(c1nc(-c2ccc(F)cc2)c(C#N)s1)c1c2nc(N3CCN(CC(=O)N4CC(O)C4)CC3)ccc2nn1CC [Compound S-0117]" endpointlabel="CYP3A4 TDI % @ 10 μM" testvalue=15.2%
compound="CCc1nc2c(C)cc(N3CCN(CC(=O)N4CC(O)C4)CC3)cn2c1N(C)c1nc(-c2ccc(F)cc2)c(C#N)s1 [GLPG1690, reference compound]" endpointlabel="CYP3A4 TDI % @ 10 μM" testvalue=21.57%
compound="CCn1nc2ccc(N3CCN(CC(=O)N4CC(O)C4)CC3)nc2c1N(C)c1nc(-c2ccc(F)cc2)c(C#N)s1 [Compound S-0094]" endpointlabel="CYP3A4 TDI % @ 10 μM" testvalue=20.88%
compound="CCc1[nH]c2ccc(N3CCN(CC(=O)N4CC(O)C4)CC3)nc2c1N(C)c1nc(-c2ccc(F)cc2)c(C#N)s1 [Compound S-0098]" endpointlabel="CYP3A4 TDI % @ 10 μM" testvalue=37.19%
compound="CCN(c1nc(-c2ccc(F)cc2)c(C#N)s1)c1c2nc(N3CCN(CC(=O)N4CC(O)C4)CC3)cc(C)c2nn1CC [Compound S-0124]" endpointlabel="CYP3A4 TDI % @ 10 μM" testvalue=8.74%
compound="CCc1nc2ncc(N3CCN(CC(=O)N4CC(O)C4)CC3)cn2c1N(C)c1nc(-c2ccc(F)cc2)c(C#N)s1 [Compound S-0021]" endpointlabel="CYP3A4 TDI % @ 10 μM" testvalue=1.67%
compound="CCn1nc2ncc(N3CCN(CC(=O)N4CC(O)C4)CC3)cc2c1N(C)c1nc(-c2ccc(F)cc2)c(C#N)s1 [Compound S-0043]" endpointlabel="CYP3A4 TDI % @ 10 μM" testvalue=12.38%
compound="CCc1nn2c(C)cc(N3CCN(CC(=O)N4CC(O)C4)CC3)nc2c1N(C)c1nc(-c2ccc(F)cc2)c(C#N)s1 [Compound S-0035]" endpointlabel="CYP3A4 TDI % @ 10 μM" testvalue=−4.84%
compound="CCN(c1nc(-c2ccc(F)cc2)c(C#N)s1)c1c2cc(N3CCN(CC(=O)N4CC(O)C4)CC3C(F)(F)F)cc(F)c2nn1CC (single isomer, unassigned) [Compound S-0134B]" endpointlabel="CYP3A4 TDI % @ 10 μM" testvalue=41.82%
